Numbers sourced from paper PMC4269550.

Test: Maximum tolerated dose in mice
Conditions: mouse, in vivo, po
Quick reference: MTD at 1 day of the listed items.

| molecular.string | MTD at 1 day [mg/kg] |
| --- | --- |
| Cc1nn(C)c(C)c1N(C(F)F)S(=O)(=O)c1c(Cl)cc(CCCC2CCN(C)CC2)cc1Cl | 100 |
| Cc1nn(C)c(C)c1N(C(F)F)S(=O)(=O)c1c(Cl)cc(CCCCC2CCN(C)CC2)cc1Cl | 50 |

----------
Assay: Mouse pharmacokinetics
Format: in vivo
Settings: female, NMRI, whole blood; mouse, 10 mg/kg po; read-out: AUC0–8 (converted)
experimental.endpoint: AUC(0-t) (µg·h/mL)

| molecule | readout.number |
| --- | --- |
| Cc1nn(C)c(C)c1NS(=O)(=O)c1c(Cl)cc(-c2ccnc(N3CCNCC3)c2)cc1Cl [compound 1] | 6.53 |
| Cc1c(NS(=O)(=O)c2c(Cl)cc(-c3ccnc(N4CCNCC4)c3)cc2Cl)c(CC(C)C)nn1C [compound 6] | 56.7 |

----------
Test: Intrinsic clearance (Cli), mouse liver microsomes
Assay type: in vitro ADME
Details: mouse liver microsomes

| compound | Cli (mouse), mL min^–1 g^–1 |
| --- | --- |
| Cc1nn(C)c(C)c1N(C(F)F)[S+](=O)([O-])c1c(Cl)cc(CCCOC2CCN(C)CC2)cc1Cl [compound 47] | 3.7 |
| Cc1nn(C)c(C)c1N(C(F)F)S(=O)(=O)c1c(Cl)cc(CCCN2CCN3CCC[C@@H]3C2)cc1Cl [compound 53] | 15 |
| Cc1nn(C)c(C)c1N(C)[S+](=O)([O-])c1c(Cl)cc(-c2ccnc(N3CCNCC3)c2)cc1Cl [compound 29] | 17 |
| Cc1nn(C)c(C)c1NS(=O)(=O)c1c(Cl)cc(CCCN2CCN(C)CC2)cc1Cl [compound 14] | 1.7 |
| Cc1nn(C)c(C)c1N(C)S(=O)(=O)c1ccc(-c2cccc(CN3CCN(C)CC3)c2)cc1 [compound 32] | 9.7 |
| Cc1nn(C)c(C)c1N(CC(F)(F)F)[S+](=O)([O-])c1c(Cl)cc(CCCC2CCN(C)CC2)cc1Cl [compound 42] | 1.1 |
| Cc1nn(C)c(C)c1N(C(F)F)[S+](=O)([O-])c1c(Cl)cc(CCCC2CCNCC2)cc1Cl [compound 43] | 0.8 |

----------
Molecular target: TbNMT (Trypanosoma brucei brucei)
Sequence (Q388H8 1-446): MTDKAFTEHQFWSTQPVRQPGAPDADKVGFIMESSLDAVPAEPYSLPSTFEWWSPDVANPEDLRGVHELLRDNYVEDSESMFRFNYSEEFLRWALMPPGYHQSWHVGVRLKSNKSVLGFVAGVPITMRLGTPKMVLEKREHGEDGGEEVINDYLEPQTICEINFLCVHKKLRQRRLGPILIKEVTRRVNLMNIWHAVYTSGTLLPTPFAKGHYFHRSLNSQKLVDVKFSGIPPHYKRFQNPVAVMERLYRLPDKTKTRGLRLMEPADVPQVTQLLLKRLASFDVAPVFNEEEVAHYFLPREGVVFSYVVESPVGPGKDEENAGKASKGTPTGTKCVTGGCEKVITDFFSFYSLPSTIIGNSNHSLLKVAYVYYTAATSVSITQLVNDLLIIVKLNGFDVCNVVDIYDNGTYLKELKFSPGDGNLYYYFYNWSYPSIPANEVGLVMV
Test: NMT enzyme inhibition scintillation proximity assay (TbNMT)
Type: biochemical, T. brucei
Settings: mean of two or more determinations; read-out: TbNMT IC50

| molecule | IC50 [nM] |
| --- | --- |
| Cc1nn(C)c(C)c1N(C(F)F)S(=O)(=O)c1c(Cl)cc(CCCOC[C@H]2CCCN2)cc1Cl | 3 |
| Cc1nn(C)c(C)c1N(C(F)F)S(=O)(=O)c1c(Cl)cc(CCCOC2CC3CCC(C2)N3C)cc1Cl (stereo not shown) | 2 |
| Cc1nn(C)c(C)c1N(C(F)F)S(=O)(=O)c1c(Cl)cc(CCCCCCN2CCOCC2)cc1Cl | 55 |
| Cc1nn(C)c(C)c1NS(=O)(=O)c1c(F)cc(-c2ccnc(N3CCNCC3)c2)cc1F | 4 |

----------
Test: Dose calculations for in vivo efficacy studies (brain concentration, brain free fraction)
Settings: NMRI, mouse, in vivo; oral dose 50mg/kg; read-out: Free brain conc at 8 hours post-dose

| molecular.string | concentration at 8 h (ng/g) |
| --- | --- |
| Cc1nn(C)c(C)c1N(CC(F)(F)F)[S+](=O)([O-])c1c(Cl)cc(CCCC2CCN(C)CC2)cc1Cl | 6.2 |

----------
Tested on: HsNMT
Format: biochemical, human
Settings: mean of two or more determinations
Response field label takes Met when IC50 is strictly below 100 nM and Not met in all other cases.

| compound | classification |
| --- | --- |
| CCN(CC)CCCCCCc1cc(Cl)c(S(=O)(=O)N(c2c(C)nn(C)c2C)C(F)F)c(Cl)c1 [compound 81] | Met |
| Cc1nn(C)c(C)c1N(C(F)F)S(=O)(=O)c1c(Cl)cc(CCCOC2CC3CCC(C2)N3C)cc1Cl (stereo not shown) [compound 71] | Met |
| Cc1nn(C)c(C)c1N(C(F)F)S(=O)(=O)c1c(Cl)cc(CCCCCCn2ccnc2)cc1Cl [compound 67] | Not met |
| Cc1nn(C)c(C)c1N(C(F)F)S(=O)(=O)c1c(Cl)cc(CCCOC2CC3CCC(C2)N3C)cc1Cl (stereo not shown) [compound 72] | Met |
| Cc1nn(C)c(C)c1N(C(F)F)S(=O)(=O)c1c(Cl)cc(CCCOC[C@@H]2CCCCN2)cc1Cl [compound 88] | Not met |
| Cc1nn(C)c(C)c1N(C(F)F)S(=O)(=O)c1c(Cl)cc(CCCCCCN(C)C(C)C)cc1Cl [compound 84] | Not met |
| Cc1nn(C)c(C)c1N(C(F)F)S(=O)(=O)c1c(Cl)cc(CCCOC[C@H]2CCCCN2)cc1Cl [compound 89] | Not met |

----------
Assay: in vitro
Assay type: cell-based, human
Details: human

| molecular.string | EC50 at 69 h |
| --- | --- |
| Cc1nn(C)c(C)c1NS(=O)(=O)c1c(Cl)cc(Br)cc1Cl | > 50 µM |

----------
System: MRC5, human lung fibroblast cells
Test: in vitro
Assay type: cell-based
pEC50: −log10 of the molar value.

| compound | pEC50 |
| --- | --- |
| Cc1nn(C)c(C)c1N(C(F)F)S(=O)(=O)c1c(Cl)cc(CCCCCCN(C)C(C)C)cc1Cl | 5.29 |
| Cc1nn(C)c(C)c1N(C(F)F)S(=O)(=O)c1c(Cl)cc(CCCOC2CCC(N(C)C)CC2)cc1Cl (stereo not shown) | 6.24 |
| Cc1nn(C)c(C)c1N(C(F)F)S(=O)(=O)c1c(Cl)cc(CCCOC2CC3CCC(C2)N3C)cc1Cl (stereo not shown) [compound 72] | 7.15 |
| Cc1nn(C)c(C)c1N(C(F)F)S(=O)(=O)c1c(Cl)cc(CCCOC2CC3CCC(C2)N3C)cc1Cl (stereo not shown) [compound 71] | 5.82 |
| Cc1nn(C)c(C)c1N(C(F)F)S(=O)(=O)c1c(Cl)cc(CCCCCCN2CCOCC2)cc1Cl | 4.91 |
| Cc1nn(C)c(C)c1N(C(F)F)S(=O)(=O)c1c(Cl)cc(CCCOC[C@@H]2CCCCN2)cc1Cl | 5.28 |
| Cc1nn(C)c(C)c1N(C(F)F)S(=O)(=O)c1c(Cl)cc(CCCOC[C@H]2CCCN2)cc1Cl | 5.49 |

----------
Assay: in vitro
Format: cell-based, human
Conditions: human; read-out: MRC-5 EC50

| compound | value.comparator | EC50 / nM |
| --- | --- | --- |
| Cc1nn(C)c(C)c1NS(=O)(=O)c1ccc(-c2ccnc(N3CC(C)NC(C)C3)c2)cc1 (stereo not drawn) | = | 2690 |
| Cc1nn(C)c(C)c1NS(=O)(=O)c1ccc(-c2ccnc(N3CCNC(Cc4ccccc4)C3)c2)cc1 (stereo not drawn) | > | 50000 |
| CCc1nccn1CCCCCCc1cc(Cl)c([S+](=O)([O-])N(c2c(C)nn(C)c2C)C(F)F)c(Cl)c1 | = | 7700 |
| Cc1nn(C)c(C)c1NS(=O)(=O)c1ccc(-c2ccnc(N3CCNC(C(C)C)C3)c2)cc1 (stereo not drawn) | = | 8160 |
| Cc1nn(C)c(C)c1N(C(F)F)[S+](=O)([O-])c1c(Cl)cc(CCCN2CCCN(C)CC2)cc1Cl | = | 410 |
| Cc1nn(C)c(C)c1N(C)[S+](=O)([O-])c1c(Cl)cc(CCCC2CCN(C)CC2)cc1Cl | = | 1100 |
| Cc1nn(C)c(C)c1NS(=O)(=O)c1ccc(-c2ccnc(N3CCNC(c4ccccc4)C3)c2)cc1 (stereo not drawn) | > | 50000 |
| CCN(c1c(C)nn(C)c1C)[S+](=O)([O-])c1c(Cl)cc(CCCC2CCN(C)CC2)cc1Cl | = | 2200 |
| Cc1nn(C)c(C)c1N(C)S(=O)(=O)c1ccc(CCCC2CCN(C)CC2)cc1 | = | 42000 |
| Cc1nn(C)c(C)c1NS(=O)(=O)c1ccc(-c2ccnc(N3CCNCC3)c2)cc1 | = | 1400 |
| Cc1nn(C)c(C)c1N(C(F)F)S(=O)(=O)c1c(Cl)cc(CCCCCCn2ccnc2C(C)C)cc1Cl | = | 3600 |
| Cc1nn(C)c(C)c1NS(=O)(=O)c1ccc(-c2ccnc(N3CCNC(C)C3)c2)cc1 (stereo not drawn) | = | 790 |
| Cc1nn(C)c(C)c1NS(=O)(=O)c1ccc(-c2ccnc(N3CCNCC3)c2)cc1F | = | 530 |
| Cc1nn(C)c(C)c1N(C(F)F)[S+](=O)([O-])c1c(Cl)cc(CCCCCCn2ccnc2C)cc1Cl | = | 910 |
| Cc1nn(C)c(C)c1N(C(F)F)S(=O)(=O)c1c(Cl)cc(CCCCCCn2ccnc2)cc1Cl | = | 7200 |
